The reader will find reported IC50 values listed item by item below.
Molecular target: recombinant human CCR5 receptor (Homo sapiens, UniProt P51681)
Sequence (P51681 whole entry): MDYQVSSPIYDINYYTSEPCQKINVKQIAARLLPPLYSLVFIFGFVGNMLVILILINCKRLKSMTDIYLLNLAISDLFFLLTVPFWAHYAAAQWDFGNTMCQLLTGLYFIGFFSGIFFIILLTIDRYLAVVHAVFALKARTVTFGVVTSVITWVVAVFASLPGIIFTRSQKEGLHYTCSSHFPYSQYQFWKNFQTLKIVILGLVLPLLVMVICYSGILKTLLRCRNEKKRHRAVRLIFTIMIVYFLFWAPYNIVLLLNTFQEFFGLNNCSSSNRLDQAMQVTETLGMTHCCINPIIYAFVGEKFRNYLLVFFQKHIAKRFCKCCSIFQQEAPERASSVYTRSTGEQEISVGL
Test: MIP-1α radioligand binding assay (scintillation proximity, CHO cell membranes)
Details: displacement of 0.1 nM iodinated MIP-1α from membranes of Chinese hamster ovary cells expressing recombinant human CCR5; average if tested more than once
Description: The ability of compounds to inhibit the binding of MIP-1α was assessed by an in vitro radioligand binding assay. Membranes were prepared from Chinese hamster ovary cells which expressed the recombinant human CCR5 receptor. These membranes were incubated with 0.1 nM iodinated MIP-1α, scintillation proximity beads and various concentrations of the compounds of the invention in 96-well plates. The amount of iodinated MIP-1α bound to the receptor was determined by scintillation counting. […]

# structure_smiles_string, IC50 [nM]
measured = [
    ("CCN(C(=O)Cc1ccc(S(C)(=O)=O)cc1)C1CCN(CC[C@@H](c2cccc(C(F)(F)F)c2)C2CCN(S(C)(=O)=O)CC2)CC1", 3.55),
    ("CS(=O)(=O)c1ccc(CC(=O)N(C2CC2)C2CCN(CC[C@@H](c3cc(F)cc(F)c3)C3CCN(S(C)(=O)=O)CC3)CC2)cc1", 1.58),
    ("CCN(C(=O)Cc1ccc(S(C)(=O)=O)cc1)C1CCN(CC[C@@H](c2cc(F)cc(F)c2)C2CCN(S(C)(=O)=O)CC2)CC1", 0.316),
    ("CCN(C(=O)NCc1ccc(S(C)(=O)=O)cc1)C1CCN(CC[C@@H](c2cc(F)cc(F)c2)C2CCN(S(C)(=O)=O)CC2)CC1", 0.501),
]
